Where do these numbers come from? They come from patent US20190194329A1.

Form field: kon (one value per entry).
tested.target: T1, His-tagged ECD of human 4-1BB (human, UniProt Q07011 24-184)
T1 construct: also called hu4-1BB; 4-1BB ECD; not shown: His tag
run.description: SPR (Biacore), captured antibody, His-tagged ECD analyte
Report the value in M⁻¹ s⁻¹ with no unit label.

{"binder": "hu107-3-hIgG4 (antibody, V domains shown, Human IgG4 constant region with the S228P mutation; also called hu107.1x.1y) VH: EVQLVQSGAEVKKPGSSVKVSCKASDYTFNDYWVSWVRQAPGQGLEWIGEIYPNSGATNFNGKFRGRATLTVDNSASTAYMELSSLRSEDTAVYYCTREYTRDWFAYWGQGTLVTVSS VL: DVQLTQSPSSLSASVGDRVTITCRSSQSLLDSDGNTYLYWFQQKPGKAPKRLIYLVSNLGSGVPSRFSGSGSGTDFTLTISSLQPEDFATYYCMQPTHAPYTFGQGTKVEIK", "measurement.kind": "kon", "endpoint.result": 130000}

Ask | Name the recorded kon for hu106-4-hIgG4 (antibody, V domains shown, Human IgG4 constant region with the S228P mutation; also called hu106.1x.3x) VH: EVQLVQSGAEVKKPGSSVKVSCKASGYTFTSYYIYWVRQAPGQGLEWIGNIWPGNGGTFYGEKFMGRATFTADTSTSTAYMELSSLRSEDTAVYYCARRPDYSGDDYFDYWGQGTLVTVSS VL: SVELTQPPSVSVSPGQTARITCKLNSGNIGSYYVHWYQQKPGQAPVTMIYRDDKRPDGIPERFSGSSDSSSNSAFLTISGVQAEDEADYYCHSYDSTITPVFGGGTKLTVL .
Reply | 210000
